Tested on: Enterococcus spp.
Experiment: minimum inhibitory concentration (MIC)
Conditions: isolate (source animal id): 133

- compound: "CC[C@H]1OC(=O)C[C@@H](O)[C@H](C)[C@@H](O[C@@H]2O[C@H](C)[C@@H](O[C@H]3C[C@@](C)(O)[C@@H](O)[C@H](C)O3)[C@H](N(C)C)[C@H]2O)[C@@H](CC=O)C[C@@H](C)C(=O)/C=C/C(C)=C/[C@@H]1CO[C@@H]1O[C@H](C)[C@@H](O)[C@@H](OC)[C@H]1OC"
  censoring_operator: "="
  minimum inhibitory concentration / µg/mL: 2
- compound: "CNC(C)C1CCC(N)C(OC2C(N)CC(N)C(OC3OCC(C)(O)C(NC)C3O)C2O)O1 (stereo unspecified)"
  censoring_operator: "="
  minimum inhibitory concentration / µg/mL: 16
- compound: "CC1(C)S[C@@H]2[C@H](NC(=O)[C@H](N)c3ccccc3)C(=O)N2[C@H]1C(=O)O"
  censoring_operator: "="
  minimum inhibitory concentration / µg/mL: 0.5
- compound: "CN1C[C@@H]2C[C@H]1CN2c1cc2c(cc1F)c(=O)c(C(=O)O)cn2C1CC1"
  censoring_operator: "="
  minimum inhibitory concentration / µg/mL: 1
- compound: "CN(C)[C@@H]1C(O)=C(C(N)=O)C(=O)[C@@]2(O)C(O)=C3C(=O)c4c(O)cccc4[C@@](C)(O)[C@H]3C[C@@H]12"
  censoring_operator: ">"
  minimum inhibitory concentration / µg/mL: 8
- compound: "CCC[C@@H]1C[C@@H](C(=O)N[C@@H]([C@H]2O[C@H](SC)[C@H](O)[C@@H](O)[C@H]2O)[C@H](C)Cl)N(C)C1"
  censoring_operator: "≤"
  minimum inhibitory concentration / µg/mL: 0.25

---

System: Mannheimia haemolytica
Experiment: minimum inhibitory concentration (MIC)
Settings: isolate (source animal id): 293
Reported values of minimum inhibitory concentration for individual entries

- item_smiles: "COc1cc(NS(=O)(=O)c2ccc(N)cc2)nc(OC)n1"
  minimum inhibitory concentration: "> 256 µg/mL"
- item_smiles: "CO/N=C(\\C(=O)N[C@@H]1C(=O)N2C(C(=O)O)=C(CSC(=O)c3ccco3)CS[C@H]12)c1csc(N)n1"
  minimum inhibitory concentration: "≤ 0.25 µg/mL"
- item_smiles: "CN[C@@H]1[C@H](O)[C@H](NC)[C@H]2O[C@@]3(O)C(=O)C[C@@H](C)O[C@H]3O[C@@H]2[C@H]1O"
  minimum inhibitory concentration: "16 µg/mL"
- item_smiles: "CC1(C)S[C@@H]2[C@H](NC(=O)Cc3ccccc3)C(=O)N2[C@H]1C(=O)O"
  minimum inhibitory concentration: "0.25 µg/mL"
- item_smiles: "CS(=O)(=O)c1ccc([C@@H](O)[C@@H](CF)NC(=O)C(Cl)Cl)cc1"
  minimum inhibitory concentration: "2 µg/mL"
- item_smiles: "CC[C@H]1OC(=O)C[C@@H](O)[C@H](C)[C@@H](O[C@@H]2O[C@H](C)[C@@H](O[C@H]3C[C@@](C)(O)[C@@H](O)[C@H](C)O3)[C@H](N(C)C)[C@H]2O)[C@@H](CC=O)C[C@@H](C)C(=O)/C=C/C(C)=C/[C@@H]1CO[C@@H]1O[C@H](C)[C@@H](O)[C@@H](OC)[C@H]1OC"
  minimum inhibitory concentration: "> 32 µg/mL"
- item_smiles: "CCCN1C[C@H](C)[C@@H](O)[C@](C)(O)[C@@H](CC)OC(=O)[C@H](C)[C@@H](O[C@H]2C[C@@](C)(OC)[C@@H](O)[C@H](C)O2)[C@H](C)[C@@H](O[C@@H]2O[C@H](C)C[C@H](N(C)C)[C@H]2O)[C@](C)(O)C[C@H]1C"
  minimum inhibitory concentration: "8 µg/mL"
